# Experiment: qHTS screen for small molecules that inhibit ELG1-dependent DNA repair in human embryonic kidney (HEK293T) cells expressing luciferase-tagged ELG1; further: nearly all actives have a fitted effect of over 55% in size
# Experimental Context: HEK293T ELG1-luciferase reporter, luminescence, 16 h, DNA damage induced by 5-fluorouridine; series mostly up to 46.1 µM
Screen size: about 330,000 compounds; about 7,700 (2.3%) were called active. Not shown: some 26% with an inconclusive outcome. The call rests on the fitted dose curve; in most records, active means well fitted inhibition curve with a large enough effect; inconclusive means small, poorly fitted or top-dose-only effect, or effect the other way; inactive means flat fitted curve, though single readings scatter. This excerpt belongs to a sample that is enriched for actives.
The categories you may choose from are label 1 = active, label 0 = inactive

Below are worked cases with known answers.
Compound | Category Label
O=C1C=C(c2cc(C(F)(F)F)cc(C(F)(F)F)c2)C[C@@H](c2ccc3c(c2)OCO3)C1 | label 0
CN(CC(=O)Nc1ccc(OC(F)F)cc1)S(=O)(=O)/C=C/c1ccccc1 | label 0
CCOc1ccccc1NC(=S)NC(=O)CCc1ccccc1 | label 0
Cc1nn(Cc2ccccc2)c(C)c1CNC(=O)c1ccc(F)c(S(=O)(=O)N2CCOCC2)c1 | label 0

What was the test verdict on O=C(c1ccc(Cl)c(Cl)c1)N1CCCC1 ?
label 0

What was the test verdict on CC(=O)NC12CC3CC(C1)CC(C(=O)N1CCN(S(=O)(=O)c4cccs4)CC1)(C3)C2 ?
label 0

What was the test verdict on COc1ccc(NC(=O)C2CCC(CNC(=O)[C@@H]3Cc4ccccc4CN3)CC2)cc1 (some centres not stated) ?
label 0

What was the test verdict on CCN(CC)S(=O)(=O)c1cc(C(=O)Nc2cc(S(=O)(=O)N3CCOCC3)ccc2N2CCCC2)ccc1F ?
label 0

----------
# Experiment: qHTS screen for small molecules that inhibit ELG1-dependent DNA repair in human embryonic kidney (HEK293T) cells expressing luciferase-tagged ELG1; further: nearly all actives have a fitted effect of over 55% in size
# Experimental Context: HEK293T ELG1-luciferase reporter, luminescence, 16 h, DNA damage induced by 5-fluorouridine; series mostly up to 46.1 µM
Screen size: about 330,000 compounds; about 7,700 (2.3%) were called active. Not shown: some 26% with an inconclusive outcome. Calls come from the whole dose curve; as a rule, active = well fitted inhibition curve with a large enough effect; inconclusive = small, poorly fitted or top-dose-only effect, or effect the other way; inactive = flat fitted curve, though single readings scatter. This excerpt belongs to a sample that is enriched for actives.
The categories you may choose from are 1.0 for active, 0.0 for inactive

Below are worked cases with known answers.
Compound | Category Label
COc1cc(C(O)c2nc3ccccc3n2C)cc(OC)c1OC (stereo unspecified) | 0.0
COc1cc(-c2n[nH]c(=S)n2Cc2ccccc2)cc(OC)c1OC | 0.0

What was the test verdict on CCC(C)(C)n1nnnc1C(c1cccs1)N1CCN(c2nc3ccccc3s2)CC1 (stereo unspecified) ?
1.0

What was the test verdict on COc1ccc(-c2oc(/N=C/N3CCCC3)c(C#N)c2-c2ccc(OC)cc2)cc1 ?
0.0

What was the test verdict on Cc1ccc(C)c(S(=O)(=O)N2CCN(c3ncnc4sccc34)CC2)c1 ?
1.0

What was the test verdict on CC1CC(C)CN(C(=O)COC(=O)c2ccc3ncsc3c2)C1 (stereo unspecified) ?
0.0

What was the test verdict on CCC(C)n1c(-c2cc(OC)c(OC)c(OC)c2)nc2nc3ccccc3nc21 (stereo unspecified) ?
1.0

What was the test verdict on c1ccc(-c2oc3ncnc(N4CCOCC4)c3c2-c2ccccc2)cc1 ?
0.0

What was the test verdict on COc1ccc(C)cc1S(=O)(=O)N1CCN(S(=O)(=O)c2cc(C(=O)O)ccc2C)CC1 ?
0.0

What was the test verdict on CCCCC(=O)Nc1nnc(S(=O)(=O)N(C)Cc2ccco2)s1 ?
0.0

What was the test verdict on CCC(C)(C)n1nnnc1C(c1cccs1)N1CCN(Cc2ccccc2)CC1 (stereo unspecified) ?
0.0

----------
# Experiment: qHTS screen for small molecules that inhibit ELG1-dependent DNA repair in human embryonic kidney (HEK293T) cells expressing luciferase-tagged ELG1; further: nearly all actives have a fitted effect of over 55% in size; further: potency means the concentration at half of the fitted maximal effect
# Experimental Context: HEK293T ELG1-luciferase reporter, luminescence, 16 h, DNA damage induced by 5-fluorouridine; series mostly up to 46.1 µM
In all, about 330,000 compounds went through this assay and about 7,700 (2.3%) were called active. About 26% were inconclusive and are not listed. The sample as a whole holds a higher share of actives than the screen did.
Attribute Measured: Potency

Previously resolved entries follow.
Compound | Obs Value
Cc1nn(CC(=O)Nc2nc3ccccc3s2)c(C)c1[N+](=O)[O-] | inactive
COc1ccc(C(C(=O)NC(C)(C)C)N(Cc2ccc(F)cc2)C(=O)CCC(=O)Nc2cc(C)on2)cc1 (stereo not given) | inactive
COc1ccc(C(C)=O)cc1COc1ccc(Cl)c(C)c1 | inactive
COc1cc(OC)c(N2CC(C(=O)Nc3cc(Cl)ccc3N3CCOCC3)CC2=O)cc1Cl (stereo not given) | inactive
C=CCn1c(SCc2cc(C(=O)OC)c(C)o2)nnc1-c1ccncc1 | inactive

Alright, here's another compound for you.
C=CCn1c(SCn2nnc3ccccc3c2=O)nnc1-c1ccc(Cl)cc1 has a reported Potency of inactive

----------
# Experiment: qHTS screen for small molecules that inhibit ELG1-dependent DNA repair in human embryonic kidney (HEK293T) cells expressing luciferase-tagged ELG1; further: nearly all actives have a fitted effect of over 55% in size
# Experimental Context: HEK293T ELG1-luciferase reporter, luminescence, 16 h, DNA damage induced by 5-fluorouridine; series mostly up to 46.1 µM
The campaign covered roughly 330,000 compounds. About 7,700 (2.3%) were called active. Another 26% or so got no clear call; they are omitted. Calls follow the shape of the dose curve; as a rule, active = well fitted inhibition curve with a large enough effect; inconclusive = small, poorly fitted or top-dose-only effect, or effect the other way; inactive = flat fitted curve, though single readings scatter. The sample holds actives, similar compounds and a random draw of the others, so the mix is not that of the screen.
The categories you may choose from are yes = active, no = inactive

Below are worked cases with known answers.
Compound | Category Label
Brc1ccc(CN2CC[C@H]3C=CCc4cccc(c43)C2)cc1 | no
Cc1cccc(C)c1Nc1nnc(SCC(=O)NCCCN2CCCC2=O)s1 | no
COCCN(CCOC)C(=S)Nc1ccccc1Cl | no
CN1C(=O)[C@H]2[C@@H](/C=C/c3ccccc3)N3C(=O)CN(Cc4ccc(-c5ccccc5)cc4)C(=O)[C@@]3(C)[C@H]2C1=O | no
O=C(Nc1ccccc1Cl)/C(Cl)=C(\Cl)S(=O)c1ccccc1 (centres undefined) | yes
CC(C)CN(C(=O)COC(=O)c1ccc(Cl)c(N)c1)c1c(N)n(Cc2ccccc2)c(=O)[nH]c1=O | no

What was the test verdict on NC(=O)COC(=O)/C=C/c1ccc2ccccc2n1 ?
no

What was the test verdict on COc1ccc(S(=O)(=O)Nc2cccc3c2O[C@H](CN(C)S(=O)(=O)c2ccc(OC)cc2)[C@@H](C)CN([C@H](C)CO)C3=O)cc1 ?
no

What was the test verdict on COc1ccc(C)cc1NC(=O)CN1c2cccc3cccc(c23)S1(=O)=O ?
no

----------
# Experiment: qHTS screen for small molecules that inhibit ELG1-dependent DNA repair in human embryonic kidney (HEK293T) cells expressing luciferase-tagged ELG1; further: nearly all actives have a fitted effect of over 55% in size
# Experimental Context: HEK293T ELG1-luciferase reporter, luminescence, 16 h, DNA damage induced by 5-fluorouridine; series mostly up to 46.1 µM
In all, about 330,000 compounds went through this assay and about 7,700 (2.3%) were called active. Another 26% or so got no clear call; they are omitted. Shown is part of a subset that was picked to be rich in actives.
Attribute Measured: outcome

Previously resolved entries follow.
Molecule | outcome
Fc1ccc(/C=N/n2c(COc3ccccc3)n[nH]c2=S)cc1 | inactive
Cc1cc(C)c(S(=O)(=O)N2CCCC2CNC(=O)c2ccc3c(c2)OCO3)c(C)c1 (stereo not given) | inactive
COc1ccc(N2CCN(C(=O)Cn3cnc4sc(C)c(S(=O)(=O)N5CCOCC5)c4c3=O)CC2)cc1 | inactive
Cc1cccc(NC(=O)c2nnn(-c3cccc(C(F)(F)F)c3)c2N)c1 | inactive

Alright, here's another molecule for you.
CN(CC(=O)NCCc1ccc(S(N)(=O)=O)cc1)CC(=O)Nc1ccc(F)c(F)c1F has a reported outcome of inactive

----------
# Experiment: qHTS screen for small molecules that inhibit ELG1-dependent DNA repair in human embryonic kidney (HEK293T) cells expressing luciferase-tagged ELG1; further: nearly all actives have a fitted effect of over 55% in size; further: potency means the concentration at half of the fitted maximal effect
# Experimental Context: HEK293T ELG1-luciferase reporter, luminescence, 16 h, DNA damage induced by 5-fluorouridine; series mostly up to 46.1 µM
The whole screen tested about 330,000 compounds, of which about 7,700 (2.3%) were called active. Roughly 26% stayed inconclusive and do not appear here. The sample as a whole holds a higher share of actives than the screen did.
Attribute Measured: Potency

Compound | Potency
O=C(NCCCN1CCCCC1)C1CCCN(c2ncnc3c2nc2n3CCCCC2)C1 (configuration not stated) | inactive
CSCc1nnc(NC(=O)c2ccc(S(=O)(=O)N3CCCCC3C)cc2)o1 (configuration not stated) | 20.6 µM (active)
O=C(c1cc2ccccc2o1)N1CCN(Cc2ccccc2)CC1 | inactive
COc1ccc(C(C)(C)C)cc1NC(=O)CCN1C(=O)C2CCCCC2C1=O (configuration not stated) | inactive
Cn1ccsc1=NC(=O)c1cc(S(=O)(=O)N2CCOCC2)ccc1Cl | inactive

Cc1ccc(NS(=O)(=O)c2ccc3c(c2)n(C)c(=O)c(=O)n3C)c(C)c1 has a reported Potency of inactive

COc1cccc(NC(=O)C2CCCN(c3ncnc4c3nc3n4CCCCC3)C2)c1 (configuration not stated) has a reported Potency of 14.6 µM (active)

COc1cccc(CNC(=O)C(=O)NCCC2CCCCN2S(=O)(=O)c2ccc(C)cc2)c1 (configuration not stated) has a reported Potency of inactive

CCCSc1ccc([C@H]2N[C@@](Cc3ccccc3)(C(=O)OC)[C@H]3C(=O)N(C)C(=O)[C@@H]23)cc1 has a reported Potency of inactive
